# Target desc: FAD-linked sulfhydryl oxidase ALR (Homo sapiens)
# Sequence (P55789 whole entry): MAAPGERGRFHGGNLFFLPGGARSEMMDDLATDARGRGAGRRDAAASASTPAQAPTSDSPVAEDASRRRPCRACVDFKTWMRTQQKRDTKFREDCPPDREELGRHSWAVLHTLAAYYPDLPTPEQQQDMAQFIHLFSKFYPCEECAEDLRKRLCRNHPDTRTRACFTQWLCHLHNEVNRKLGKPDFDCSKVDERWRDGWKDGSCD
# Assay method text: ALR-catalysed DTT oxidation blockers – biochemical, H2O2 detection, luminescence, cherry-pick, dose response (AID 493248)
Activity calls are given as the source filed them.
Reported endpoint: AC50

Entry CC1=NN(Cc2ccccc2)C(=O)C1C(c1ccccc1)C(C#N)C#N (stereo not drawn) — recorded AC50 = 5.37 µM (active)

Entry CCn1c(-c2ccc(N(C)C)cc2)nc2ccccc21 — recorded AC50 = 1.48 µM (active)

Entry CCc1nc(SCc2ccc(F)cc2)[nH]c(=O)c1C#N — recorded AC50 = 0.622 µM (active)

====

# Target desc: UniProtKB Q9XUB2
# Sequence (Q9XUB2 whole entry): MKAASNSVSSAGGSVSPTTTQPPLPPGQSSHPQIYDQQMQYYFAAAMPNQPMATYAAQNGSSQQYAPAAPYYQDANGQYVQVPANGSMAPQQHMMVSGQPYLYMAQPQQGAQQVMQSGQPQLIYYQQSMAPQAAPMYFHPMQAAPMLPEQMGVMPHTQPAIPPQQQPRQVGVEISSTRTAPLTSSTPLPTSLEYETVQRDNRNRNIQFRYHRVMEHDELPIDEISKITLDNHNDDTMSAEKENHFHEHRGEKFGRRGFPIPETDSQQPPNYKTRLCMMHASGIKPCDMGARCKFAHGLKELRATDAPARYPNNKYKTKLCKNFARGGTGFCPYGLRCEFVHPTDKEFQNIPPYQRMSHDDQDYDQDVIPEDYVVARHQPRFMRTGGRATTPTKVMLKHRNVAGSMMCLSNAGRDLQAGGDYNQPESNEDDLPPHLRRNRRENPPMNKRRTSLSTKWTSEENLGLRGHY
# Assay method text: potency of MEX-5 RNA-binding blockers – biochemical, C. elegans, fluorescence polarization, dose response (AID 1960)
Activity calls are given as the source filed them.
Reported endpoint: EC50

Entry COc1cccc(N2C(=O)NC(=O)/C(=C/c3ccc4c(c3)Cc3ccccc3-4)C2=O)c1 — recorded EC50 = > 300 µM (not active)

Entry COc1ccc(Nc2nc3ccccc3nc2NS(=O)(=O)c2cccs2)c(OC)c1 — recorded EC50 = 49.7 µM (inconclusive)

Entry CN1C(=O)C(=Cc2cc3ccccc3nc2O)C(=O)N(C)C1=O — recorded EC50 = > 300 µM (not active)

Entry CC1(C)CC(=O)C2=C(C1)OC(N)=C(C#N)C21C(=O)N(CN2CCOCC2)c2ccccc21 (stereo not given) — recorded EC50 = > 300 µM (not active)

Entry CCOc1ccc(N2C(=O)NC(=O)/C(=C/Nc3ccc(N(CC)CC)cc3)C2=O)cc1 — recorded EC50 = 106 µM (active)

Entry Cc1cc(/C=C(/C#N)c2nc3ccccc3[nH]2)c(C)n1-c1ccccc1C(=O)O — recorded EC50 = > 300 µM (not active)

Entry COc1ccc(C(=O)c2sc3nc(C)cc(-c4cccs4)c3c2N)cc1OC — recorded EC50 = 22.6 µM (active)

Entry O=C(CN1CCC(n2nnc3cc(F)ccc32)CC1)NCCc1ccccc1 — recorded EC50 = > 300 µM (not active)

Entry C=CCOc1cccc(C2C(C(=O)c3ccc(C)o3)=C(O)C(=O)N2c2nnc(C)s2)c1 (stereo not given) — recorded EC50 = 210 µM (active)

Entry CCOc1cc(/C=C(\C#N)c2nc3ccccc3[nH]2)ccc1OC(C)C(=O)O (stereo not given) — recorded EC50 = 50.5 µM (active)

====

Give AC50 for every item shown.
# Target desc: UniProt:P08684
# Sequence (P08684 whole entry): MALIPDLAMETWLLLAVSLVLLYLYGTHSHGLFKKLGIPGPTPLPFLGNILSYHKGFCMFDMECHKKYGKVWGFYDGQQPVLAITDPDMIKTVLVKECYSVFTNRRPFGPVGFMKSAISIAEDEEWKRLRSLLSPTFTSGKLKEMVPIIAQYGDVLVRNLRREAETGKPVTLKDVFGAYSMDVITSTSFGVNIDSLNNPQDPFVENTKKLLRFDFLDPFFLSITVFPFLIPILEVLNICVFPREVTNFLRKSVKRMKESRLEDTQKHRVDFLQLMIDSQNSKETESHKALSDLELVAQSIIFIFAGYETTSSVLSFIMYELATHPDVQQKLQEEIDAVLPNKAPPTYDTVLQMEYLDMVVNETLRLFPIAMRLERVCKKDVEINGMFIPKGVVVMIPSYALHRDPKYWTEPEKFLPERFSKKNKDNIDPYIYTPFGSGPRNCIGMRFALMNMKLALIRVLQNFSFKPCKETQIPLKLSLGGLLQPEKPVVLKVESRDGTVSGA
# Run conditions: Potency

Entry COC(=O)CCCCCN1C(=O)NC(c2ccccc2)C(C(=O)OCc2ccccc2)=C1C (configuration not stated) — recorded AC50 = 10 µM (inconclusive)

Entry CCN(CC)CCCCn1c(-c2ccccc2)nc2c(N3CCOCC3)nc(C)nc21 — recorded AC50 = 7.94 µM (inconclusive)

Entry CC1CCC2C(=O)N3C(CCC(C)[C@H]3c3cccc(N4CCCC4=O)c3)C(=O)N2C1c1cccc(N2CCCC2=O)c1 (some centres not stated) — recorded AC50 = 2.51 µM (inconclusive)

Entry Cn1c(=O)cc(N)n(Cc2ccccc2)c1=O — recorded AC50 = 39.8 µM (inconclusive)

Entry COc1cccc(N)c1 — recorded AC50 = 31.6 µM (inconclusive)

Entry CCC1=C2CC[C@H]3C(=O)N(CC(=O)OC)C(=O)[C@H]3[C@H]2[C@@]2(C)/C(=N/CC(=O)OC)OC(=O)N2C1=O — recorded AC50 = 25.1 µM (inconclusive)

Entry N[C@@H](Cc1cc(O)c(O)cc1O)C(=O)O — recorded AC50 = 15.8 µM (inconclusive)

====

Give AC50 for every item shown.
# Target desc: Microphthalmia-associated transcription factor (Homo sapiens)
# Sequence (O75030 whole entry): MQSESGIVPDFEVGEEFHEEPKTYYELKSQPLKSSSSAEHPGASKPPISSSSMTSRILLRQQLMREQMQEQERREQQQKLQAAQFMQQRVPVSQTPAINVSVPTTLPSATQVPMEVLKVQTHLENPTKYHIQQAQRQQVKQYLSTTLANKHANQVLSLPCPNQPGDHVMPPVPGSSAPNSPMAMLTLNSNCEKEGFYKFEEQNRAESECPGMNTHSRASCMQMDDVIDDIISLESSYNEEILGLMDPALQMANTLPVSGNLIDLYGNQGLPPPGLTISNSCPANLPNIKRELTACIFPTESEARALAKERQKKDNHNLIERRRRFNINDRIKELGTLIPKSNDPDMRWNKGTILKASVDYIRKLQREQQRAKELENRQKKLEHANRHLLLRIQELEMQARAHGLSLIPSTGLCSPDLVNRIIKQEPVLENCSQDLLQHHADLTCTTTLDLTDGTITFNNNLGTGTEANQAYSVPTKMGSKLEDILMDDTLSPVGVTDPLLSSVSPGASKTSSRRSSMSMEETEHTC
# Assay method text: reducers of TRPM1 reporter luminescence, concentration series – cell-based, SK-MEL-5, cherry-picked, set 3, MITF inhibitor project, dose response (AID 493073);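 note: SK-MEL-5 melanoma cells with luciferase driven by the MITF target TRPM1 promoter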
# Assay type: functional
Calls of active or inactive are those of the source.

Value (AC50, Microphthalmia-associated transcription factor (Homo sapiens)) for record CC(C)N1C(=O)/C(=C/C=C/c2ccco2)C(=O)N(Cc2ccco2)C1=O = 9.97 µM (active)

Value (AC50, Microphthalmia-associated transcription factor (Homo sapiens)) for record OC(CNCC(c1ccc(Cl)cc1Cl)c1c[nH]c2ccccc12)c1ccccc1 (stereo not given) = 14.7 µM (active)

Value (AC50, Microphthalmia-associated transcription factor (Homo sapiens)) for record CC(=O)NC1=C(N(C)C2CCS(=O)(=O)C2)C(=O)c2ccccc2C1=O (stereo not given) = 21.2 µM (active)

Value (AC50, Microphthalmia-associated transcription factor (Homo sapiens)) for record O=C(Nc1nc2cc3c(cc2s1)OCO3)C1=COCCO1 = 3.77 µM (active)

Value (AC50, Microphthalmia-associated transcription factor (Homo sapiens)) for record O=C(Nc1ccc(Cl)c(S(=O)(=O)N2CCOCC2)c1)c1ccc(OCC2CCCO2)cc1 (stereo not given) = 3.26 µM (active)

Value (AC50, Microphthalmia-associated transcription factor (Homo sapiens)) for record Cn1nnnc1Sc1ncnc2scc(-c3ccc(C#N)cc3)c12 = 4.98 µM (active)

Value (AC50, Microphthalmia-associated transcription factor (Homo sapiens)) for record Cc1cc(Br)ccc1NC(=O)CNC(=O)Cn1ncc(Cl)c(Cl)c1=O = 7.47 µM (active)

Value (AC50, Microphthalmia-associated transcription factor (Homo sapiens)) for record Oc1c(CN2CCCC2)cc(COCc2ccccc2)c2cccnc12 = 6.15 µM (active)

Value (AC50, Microphthalmia-associated transcription factor (Homo sapiens)) for record CC1=NOC(=O)/C1=C\c1ccc(-c2cccc(Cl)c2)o1 = 5.36 µM (active)

Value (AC50, Microphthalmia-associated transcription factor (Homo sapiens)) for record CC(C)c1ccc(N2C(=O)NC(=O)/C(=C/C=C/c3ccco3)C2=O)cc1 = 5.89 µM (active)

====

# Target desc: Glutathione-S-transferase (Schistosoma japonicum, UniProt Q26513)
# Sequence (Q26513 whole entry): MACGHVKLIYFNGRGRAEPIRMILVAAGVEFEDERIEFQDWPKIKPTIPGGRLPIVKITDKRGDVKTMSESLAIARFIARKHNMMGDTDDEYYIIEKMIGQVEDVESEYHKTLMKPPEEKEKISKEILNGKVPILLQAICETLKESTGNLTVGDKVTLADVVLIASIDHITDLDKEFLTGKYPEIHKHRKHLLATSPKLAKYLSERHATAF
# Assay method text: GST-antibody interaction or FRET quenching – biochemical, TR-FRET, artefact control for Vif-APOBEC3G degradation inhibitor project, dose response (AID 1117362)
# Assay type: functional
The source made the active and inactive calls.
Reported endpoint: IC50

Entry CCN(CC)c1ccc2c(c1)CCCN2 — recorded IC50 = 48.6 µM (active)

Entry Nc1ccc(N2CCCCCC2)cc1 — recorded IC50 = 44.5 µM (active)

Entry O=C(COc1ccccc1Cl)c1ccc[nH]1 — recorded IC50 = > 100 µM (active)

Entry CN(C)c1ccc(NC(=O)Cn2cc3c(n2)CCCC3)cc1 — recorded IC50 = 22.1 µM (active)

Entry CCCOc1ccc(N)cc1N — recorded IC50 = 15.8 µM (active)

====

# Target desc: Protein Tat (Human immunodeficiency virus type 1 group M subtype B (isolate HXB2)(HIV-1), UniProt P04608);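 note: tat binding to TAR RNA read out by fluorescence polarization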
# Sequence (P04608 whole entry): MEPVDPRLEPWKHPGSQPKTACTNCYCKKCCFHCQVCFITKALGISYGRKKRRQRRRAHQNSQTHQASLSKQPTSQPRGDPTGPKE
# Format: functional
Calls of active or inactive are those of the source.
Reported endpoint: IC50

Entry Cn1cccc1/C=C1/C(=O)NC(=S)N(Cc2ccc(F)cc2)C1=O — recorded IC50 = > 100 µM (active)

Entry COc1ccc(/C=N\NC(=O)c2cc(O)c(O)c(O)c2)cc1CN1CCN(c2ccc(F)cc2)CC1 — recorded IC50 = > 100 µM (inconclusive)

Entry c1cncc(-c2csc(NCc3ccco3)n2)c1 — recorded IC50 = > 100 µM (active)

Entry CN(C)c1ccc(NC(=O)Cn2cc3c(n2)CCCC3)cc1 — recorded IC50 = > 100 µM (inconclusive)

Entry Nc1ccc(N2CCCCCC2)cc1 — recorded IC50 = 11.8 µM (inconclusive)

====

Give AC50 for every item shown.
# Target desc: Histone-lysine N-methyltransferase NSD2 (Homo sapiens, UniProt O96028)
# Sequence (O96028 whole entry): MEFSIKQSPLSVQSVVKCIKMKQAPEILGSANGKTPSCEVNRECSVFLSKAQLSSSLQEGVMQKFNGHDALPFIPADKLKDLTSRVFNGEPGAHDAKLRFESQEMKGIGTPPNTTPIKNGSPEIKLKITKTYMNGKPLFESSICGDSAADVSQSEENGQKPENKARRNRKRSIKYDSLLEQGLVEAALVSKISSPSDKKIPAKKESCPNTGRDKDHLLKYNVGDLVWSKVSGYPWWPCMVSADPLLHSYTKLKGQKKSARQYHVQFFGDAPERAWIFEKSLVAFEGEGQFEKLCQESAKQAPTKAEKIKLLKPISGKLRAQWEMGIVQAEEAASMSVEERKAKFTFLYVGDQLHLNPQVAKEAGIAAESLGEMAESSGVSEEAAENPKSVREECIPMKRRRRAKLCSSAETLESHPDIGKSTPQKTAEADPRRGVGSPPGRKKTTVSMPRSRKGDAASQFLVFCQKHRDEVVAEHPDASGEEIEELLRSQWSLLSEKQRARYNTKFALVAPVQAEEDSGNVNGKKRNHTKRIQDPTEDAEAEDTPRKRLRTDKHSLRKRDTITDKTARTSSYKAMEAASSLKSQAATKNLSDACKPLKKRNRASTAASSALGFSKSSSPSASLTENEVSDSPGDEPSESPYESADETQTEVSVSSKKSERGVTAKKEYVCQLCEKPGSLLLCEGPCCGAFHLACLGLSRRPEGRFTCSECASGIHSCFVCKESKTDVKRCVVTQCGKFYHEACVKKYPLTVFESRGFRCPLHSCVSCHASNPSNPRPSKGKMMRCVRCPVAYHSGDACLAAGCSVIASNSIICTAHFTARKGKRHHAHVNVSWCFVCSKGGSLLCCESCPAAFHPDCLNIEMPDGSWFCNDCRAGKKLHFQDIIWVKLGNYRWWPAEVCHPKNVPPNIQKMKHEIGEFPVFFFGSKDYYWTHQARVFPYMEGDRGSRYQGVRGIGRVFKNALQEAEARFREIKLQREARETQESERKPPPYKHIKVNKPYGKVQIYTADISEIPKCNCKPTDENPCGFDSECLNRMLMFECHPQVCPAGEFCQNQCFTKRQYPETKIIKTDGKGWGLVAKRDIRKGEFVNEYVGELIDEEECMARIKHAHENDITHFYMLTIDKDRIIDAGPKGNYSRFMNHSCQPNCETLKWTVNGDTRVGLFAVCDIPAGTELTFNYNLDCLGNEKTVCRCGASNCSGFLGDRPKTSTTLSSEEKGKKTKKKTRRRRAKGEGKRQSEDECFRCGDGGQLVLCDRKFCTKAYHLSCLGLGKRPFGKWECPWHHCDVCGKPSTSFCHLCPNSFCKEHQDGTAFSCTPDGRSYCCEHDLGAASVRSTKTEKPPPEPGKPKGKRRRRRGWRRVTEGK
# Format: biochemical
The source made the active and inactive calls.

Entry COc1cc(NCCCCC(C)N)c2nccc(C)c2c1 (centres undefined) — recorded AC50 = 2.52 µM (active)

Entry COc1ccc(-c2csc(Nc3ccc(S(=O)(=O)Nc4cc(C)on4)cc3)n2)cc1C — recorded AC50 = 11.9 µM (active)

Entry CC(C)N1C(=O)/C(=C/C=C/c2ccco2)C(=O)N(Cc2ccco2)C1=O — recorded AC50 = 8.26 µM (active)

Entry CCN(CC)CCCNC(=O)c1cc2c(Cl)nc3ccccc3c2s1 — recorded AC50 = 16.8 µM (active)
